Reference for the values: paper PMC8546428

Let's look at some molecules and their measured EC50.
# system.under.test: sTAAR365 T7.42S (Petromyzon marinus, UniProt A0A678XMK4, T298S)
# protocol.notes: cell-based
Report the figure in µM without appending any unit label.

molecule.smiles | EC50 (µM)
NCCCCCN | 0.126

Can you look up EC50 on sTAAR365 T7.42S (Petromyzon marinus, UniProt A0A678XMK4, T298S) for "NCCCNCCCCNCCCN" ? 64

---

# system.under.test: sTAAR365 Y7.43F (Petromyzon marinus, UniProt A0A678XMK4, Y299F)
# Sequence (A0A678XMK4 1-365 Y299F): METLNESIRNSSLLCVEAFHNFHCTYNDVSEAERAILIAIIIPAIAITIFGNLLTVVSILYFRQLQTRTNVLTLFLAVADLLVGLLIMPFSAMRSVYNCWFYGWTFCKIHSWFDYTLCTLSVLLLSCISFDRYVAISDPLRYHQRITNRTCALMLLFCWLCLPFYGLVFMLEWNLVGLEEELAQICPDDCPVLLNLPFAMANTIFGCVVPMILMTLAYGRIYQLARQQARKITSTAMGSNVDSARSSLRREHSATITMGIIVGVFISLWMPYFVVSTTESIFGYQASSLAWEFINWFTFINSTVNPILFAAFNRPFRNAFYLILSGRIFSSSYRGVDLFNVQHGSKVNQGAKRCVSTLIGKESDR
# protocol.notes: cell-based
endpoint.name: EC50 (µM)
# output: bare number, implied unit µM

I'd like to know its EC50. The molecule in question is "NCCCCCN" 2
